System: NCI/ADR-RES ovarian
Assay: NCI tumour cell line growth inhibition, 48 h
measured.attribute: TGI (µM)
Report the figure in µM without appending any unit label.

Sure, the documented TGI for CCOC(=O)c1cc(=C2\CCN(CC(C)CC)C2=S)/c(=C(/O)CC)[nH]1 (configuration not stated) is 75.3

Sure, the documented TGI for `CCOc1ccc(S(=O)(=O)/N=C2\C=C(SCC(=O)O)C(=O)c3ccccc32)cc1` is 13.5

Sure, the documented TGI for Cc1ccc2c(C(C[N+](=O)[O-])c3cccs3)c(-c3ccccc3)[nH]c2c1 (configuration not stated) is 3.68

Sure, the documented TGI for `Clc1cc(N/N=C(/c2ccccc2)c2ncccn2)ncn1` is 50.8

Sure, the documented TGI for `O=C(/C(=C(/Br)I)c1ccccc1)c1ccccc1` is 37.4

Sure, the documented TGI for CC1C(c2cc(C(C)(C)C)c(O)c(C(C)(C)C)c2)c2cc3c(cc2OC1N1CCOCC1)OCO3 (configuration not stated) is 87.4

Sure, the documented TGI for `O=C(/C=C/c1ccc(Cl)cc1)c1ccc(Cl)cc1Cl` is 15.5

Sure, the documented TGI for `O=c1cc(-c2cccc(F)c2)[nH]c2cc3c(cc12)OCO3` is 0.0497

Sure, the documented TGI for `CN1CCN(Cc2ccc(C(=O)Nc3cncc(C#Cc4cnc(N)c5ccccc45)c3)cc2C(F)(F)F)CC1` is 4.22

Sure, the documented TGI for `CC(C)(C)OC(=O)n1cc(CNC(=S)Nc2ccccc2)c2ccccc21` is 22.7

* * *

Kindly supply the reported TGI values for the records listed here.
System: OVCAR-3 ovarian
Test: NCI tumour cell line growth inhibition, 48 h
Report the figure in µM without appending any unit label.

Sure, the documented TGI for `C=CC(=O)N[C@H]1C=C(C)c2c(-c3cnc4ccccc4c3)c3c(N)ncnc3n2C1` is 52.2

Sure, the documented TGI for `COc1ccc(C(=O)Nc2ncc(Cc3ccc(Cl)cc3)s2)cc1` is 0.159

Sure, the documented TGI for CC(=O)OC1=C2CC3(C)OC(=O)CC(C)(C)C3=CC=C2C=C(C(C)C)C1=O (stereo not given) is 2.41

Sure, the documented TGI for `C=C1C(=O)O[C@H]2[C@H]1CC/C(CNC(=O)c1c[nH]c3ccc(F)cc13)=C\CC[C@@]1(C)O[C@@H]21` is 1.77

* * *

Kindly supply the reported TGI values for the records listed here.
Test system: COLO 205 colon
Test: NCI tumour cell line growth inhibition, 48 h
Report the figure in µM without appending any unit label.

Sure, the documented TGI for `COc1cccc(/C=C/C(=O)c2cc3c(N)c(C(=O)Nc4ccccc4C)sc3nc2C)c1` is 7.61

Sure, the documented TGI for `COC(=O)C(=O)CC(=O)CCn1ncc(Cl)c(Cl)c1=O` is 31.8

Sure, the documented TGI for `COc1ccc(/C=C/C=C(/C#N)C(N)=S)cc1` is 50.7

* * *

System: UACC-257 melanoma
Assay: NCI tumour cell line growth inhibition, 48 h
Kindly supply the reported log10 TGI values for the records listed here.
Transform log10 | Measure TGI | Unit µM

Sure, the documented log10 TGI for `CN1CCN(Cc2ccc(C(=O)Nc3cncc(C#Cc4cnc(N)c5ccccc45)c3)cc2C(F)(F)F)CC1` is 0.64

Sure, the documented log10 TGI for CC(=O)OC1=C2CC3(C)OC(=O)CC(C)(C)C3=CC=C2C=C(C(C)C)C1=O (configuration not stated) is 0.04

Sure, the documented log10 TGI for `CC(=O)[CH-]C(=O)c1ccccc1.CC(=O)[CH-]C(=O)c1ccccc1.CCCCCCCCCCCCCCCCCC(=O)[O-].CCCCCCCCCCCCCCCCCC(=O)[O-].[Ti+4]` is 1.84

Sure, the documented log10 TGI for `N#Cc1c(NC(=O)c2cccc(C(F)(F)F)c2)sc2c1CCC(=O)C2` is 0.59

Sure, the documented log10 TGI for `N#Cc1c(-c2cccs2)c2c(=S)[nH]c(=S)[nH]c2[nH]c1=S` is 1.91

Sure, the documented log10 TGI for `COc1ccc(Nc2c(C#N)c3n(c4ccccc24)c2ccccc2[n+]3C)cc1OC` is 1.23

Sure, the documented log10 TGI for `Cc1nn(-c2ccc(F)cc2)c2ncnc(Nc3ccc(NC(=O)Nc4ccc(Cl)c(C(F)(F)F)c4)cc3)c12` is 0.78

Sure, the documented log10 TGI for `CCN1CCN(c2nc(NCCCNc3ccnc4cc(Cl)ccc34)c3ccccc3n2)CC1` is 0.60

Sure, the documented log10 TGI for `Cc1cc2nc3c4cc(Cl)ccc4n(CCN(C)C)c3nc2cc1C` is 0.56

Sure, the documented log10 TGI for `COc1cc2c(c3c1C=CCO3)C(=O)c1ccccc1C2=O` is 1.84

Sure, the documented log10 TGI for `CN=C(N)N/N=C(\c1ccccc1)c1ccc(Br)cc1` is 1.11

Sure, the documented log10 TGI for `COc1cccc(/C=C/C(=O)c2cc3c(N)c(C(=O)Nc4ccccc4C)sc3nc2C)c1` is 0.57

Sure, the documented log10 TGI for C#CCNC(=O)NC(CCCNC(=O)OCc1ccccc1)C(=O)OCc1ccccc1 (configuration not stated) is 1.97

Sure, the documented log10 TGI for `CC(C)(C)c1cc(O)c(O)c(C(C)(C)C)c1` is 0.87

Sure, the documented log10 TGI for `O=C(Nc1cccc(-n2ccc3c(NC(=O)c4ccccc4)nccc32)c1)c1cccc(C(F)(F)F)c1` is 1.30

Sure, the documented log10 TGI for `[N-]=[N+]=Nc1c(Cl)c(=O)n(-c2ccccc2)c2ccccc12` is 1.67

Sure, the documented log10 TGI for `O=C1/C(=C/c2ccc(F)cc2)CCOc2ccc([N+](=O)[O-])cc21` is 0.80

Sure, the documented log10 TGI for Cc1cccc(N2C(=O)C3ON(C(C(N)=O)c4ccccc4)C(c4c5ccccc5c(Cl)c5ccccc45)C3C2=O)c1C (configuration not stated) is 1.26

Sure, the documented log10 TGI for `O=[Se]([O-])c1ccccc1.O=[Se]([O-])c1ccccc1.[OH3+].[OH3+].[Pt+2]` is 1.07

Sure, the documented log10 TGI for `COc1cc2c(cc1OCCCCCOc1cc3c(cc1OC)C(=O)N1CCC[C@H]1C(=O)N3)N=C[C@@H]1CCCN1C2=O` is -0.15

Sure, the documented log10 TGI for `CC1(C)N=C(N)N=C(N)N1c1ccc(CCCCc2ccc(S(=O)(=O)F)cc2)cc1` is 1.26

* * *

Tested on: OVCAR-8 ovarian
Experiment: NCI tumour cell line growth inhibition, 48 h; in the data active = GI50 below about 0.43 µM; inactive = the rest
Give your call using only these classes: true (1) for active, false (0) for inactive

Entry `CN=C(N)N/N=C(\c1ccccc1)c1ccc(Br)cc1` : call = ?
true (1)

Entry `CCOc1ccc(S(=O)(=O)/N=C2\C=C(SCC(=O)O)C(=O)c3ccccc32)cc1` : call = ?
false (0)

Entry `O=C(Nc1nc2ccccc2s1)OCC(F)(F)F` : call = ?
false (0)

Entry `CC(C)(C)c1cc(O)c(O)c(C(C)(C)C)c1` : call = ?
false (0)

Entry `O=C(Nc1cccc(-n2ccc3c(NC(=O)c4ccccc4)nccc32)c1)c1cccc(C(F)(F)F)c1` : call = ?
true (1)

Entry `CC1(C)N=C(N)N=C(N)N1c1ccc(CCCCc2ccc(S(=O)(=O)F)cc2)cc1` : call = ?
false (0)

Entry COc1ccc(-c2nn(-c3cccc(Cl)c3)cc2C2CC(c3ccccc3)=NN2C(C)=O)cc1 (stereo unspecified) : call = ?
false (0)

Entry `C1COCCN1.C1COCCN1.N.N.[Cl-].[Pt+2]` : call = ?
false (0)

Entry `COc1ccc(/C=C/C=C(/C#N)C(N)=S)cc1` : call = ?
false (0)

Entry C=C1C(O)C2CCC(C)(C)C(=O)C2=C(CC(C)C)C12CC2 (stereo unspecified) : call = ?
false (0)

Entry C#Cc1cnc(=O)n(C2CC(O)C(CO)O2)c1 (stereo unspecified) : call = ?
false (0)

* * *

Test system: LOX IMVI melanoma
Experiment: NCI tumour cell line growth inhibition, 48 h
measured.attribute: TGI (µM)
Report the figure in µM without appending any unit label.

Sure, the documented TGI for `Brc1cccc(-c2cc(-c3ccc4c(c3)OCCO4)[nH]n2)c1` is 30.4

Sure, the documented TGI for `COc1cc2c3c(cccc3c1)C(=O)N(CCN1CCCC1)C2=O` is 4.42

Sure, the documented TGI for COC(=O)C1(Cc2ccccc2)Cc2cc3c(cc2C1=O)CCC3 (stereo unspecified) is 79.1

* * *

Kindly supply the reported TGI values for the records listed here.
Tested on: PC-3 prostate
Experiment: NCI tumour cell line growth inhibition, 48 h

Sure, the documented TGI for CC1(C)CC2(C)CC1CC2O (stereo unspecified) is > 100 µM

Sure, the documented TGI for Oc1ccccc1C(c1cc2c(cc1O)OCO2)N1CCOCC1 (stereo unspecified) is 31.6 µM

Sure, the documented TGI for `O=C(Nc1ccc(I)cc1C(=O)NCCO)c1cccs1` is > 100 µM

Sure, the documented TGI for `N#Cc1c(-c2cccs2)c2c(=S)[nH]c(=S)[nH]c2[nH]c1=S` is > 100 µM

Sure, the documented TGI for `c1cc(-c2cnc(-c3ccc4c(c3)CCCO4)o2)ccn1` is 24.4 µM

Sure, the documented TGI for `c1cc2nnc1SCCSCCSc1ccc(nn1)SCCSCCS2` is > 100 µM
